Target: Fuc(a1-2)Gal(b1-3)[Fuc(a1-4)]GlcNAc
Assay: glycan array binding signal (z-score within array); higher = stronger binding
Conditions: glycan notation: IUPAC condensed, linker removed
Many of the other results were omitted from the sample, so the strongest signals are more common in it than they were.
measured.attribute: glycan array binding signal (z-score)
# print the numeric value only

stdin: I'd like to know its glycan array binding signal (z-score). The binder in question is Pwp2 (Candida glabrata) (protein) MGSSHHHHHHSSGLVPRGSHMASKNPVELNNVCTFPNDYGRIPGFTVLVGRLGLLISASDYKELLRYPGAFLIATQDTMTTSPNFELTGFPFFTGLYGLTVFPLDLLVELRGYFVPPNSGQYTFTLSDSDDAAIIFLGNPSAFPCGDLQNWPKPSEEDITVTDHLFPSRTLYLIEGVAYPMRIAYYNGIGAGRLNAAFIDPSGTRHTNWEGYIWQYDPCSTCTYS
stdout: -0.451

stdin: Look up glycan array binding signal (z-score): SLP (Clostridium difficile), Q183M8 (protein) MATTGTQGYTVVKNDWKKAVKQLQDGLKDNSIGKITVSFNDGVVGEVAPKSANKKADRDAAAEKLYNLVNTQLDKLGDGDYVDFSVDYNLENKIITNQADAEAIVTKLNSLNEKTLIDIATKDTFGMVSKTQDSEGKNVAATKALKVKDVATFGLKSGGSEDTGYVVEMKAGAVEDKYGKVGDSTAGIAINLPSTGLEYAGKGTTIDFNKTLKVDVTGGSTPSAVAVSGFVTKDDTDLAKSGTINVRVINAKEESIDIDASSYTSAENLAKRYVFDPDEISEAYKAIVALQNDGIESNLVQLVNGKYQVIFYPEGKRLETKSLEHHHHHH
stdout: -0.18
